// provenance: paper PMC6218659

- assayDetails: in vivo
- Set-up: species or system C57BL/6 mice
- conditions: female, C57BL/6, mouse, ip, 30 mg/kg, Concentration, first series
reportedMetric: concentration at 2 h (µM)
Answers are plain numbers, in µM.

Note to self: concentration at 2 h recorded for CCCCCCCC(=O)N[C@H]1[C@H](O[C@H]2O[C@H](CO)[C@@H](O)[C@H](O)[C@H]2NC(=O)CCCCCCC)O[C@H](C[C@@H](O)[C@H]2O[C@@H](n3ccc(=O)[nH]c3=O)[C@H](O)[C@@H]2O)[C@H](O)[C@@H]1O [TUN-8,8, Di-N-octanoyl-tunicamycin] was 23.7
